test system: M14 melanoma; assay: NCI tumour cell line growth inhibition, 48 h
property.name: TGI

QUERY: Please give the measured TGI for this compound: CCOC(=O)C12CN(C34CC5CC(CC(C5)C3)C4)CC(C(=O)OCC)(C1=O)C(c1ccccc1)OC2c1ccccc1 (stereo not given)
RESULT: > 100 µM

QUERY: Please give the measured TGI for this compound: Cc1ccc(NC(=O)CCC(=O)C2CC(=O)CCC2=O)cc1C (stereo not given)
RESULT: > 100 µM

QUERY: Please give the measured TGI for this compound: O=C(CC(C(=O)c1ccsc1)c1cccs1)c1ccsc1 (stereo not given)
RESULT: > 100 µM

QUERY: Please give the measured TGI for this compound: NCCCNCCCNc1nc2ccccc2c2[nH]c3ccccc3c12
RESULT: 2.35 µM

QUERY: Please give the measured TGI for this compound: COc1ccc(-c2c(C(=O)Nc3ccccc3)c(-c3ccccc3)n(C3OC(CO)C(O)C(O)C3O)c(=S)c2C#N)cc1 (stereo not given)
RESULT: > 100 µM

QUERY: Please give the measured TGI for this compound: COc1ccc2c(c1)CC[C@@H]1C2CC[C@]2(C)C(=O)N(C)C(=O)CC12 (stereo not given in full)
RESULT: > 100 µM

QUERY: Please give the measured TGI for this compound: O=C(NCCS(=O)(=O)N1C(=O)C2CCCN2C(=O)[C@@H]1Cc1ccccc1)OCc1ccccc1 (stereo not given in full)
RESULT: > 100 µM

QUERY: Please give the measured TGI for this compound: CC(C)c1cccc(C(C)C)c1NC(=S)Nc1ccccc1
RESULT: > 100 µM

QUERY: Please give the measured TGI for this compound: CC(=O)NC1C(OCc2ccccc2)OC(CO)C(O)C1OC(C)C(=O)NC(C(=O)NC(CCC(=O)Nc1ccc2c(c1)CN1C(=O)c3ccccc3C1=N2)C(N)=O)C(C)C (stereo not given)
RESULT: > 100 µM

QUERY: Please give the measured TGI for this compound: CC1(C)O[C@@H]([C@@H](O)[C@H](O)C2SCCCS2)[C@@H](CO)O1
RESULT: > 100 µM

QUERY: Please give the measured TGI for this compound: CNC1=C(C)C(=O)C2=C(C1=O)C(COC(N)=O)C1(OC)C3NC3CN21 (stereo not given)
RESULT: 2.01 µM

QUERY: Please give the measured TGI for this compound: CC[n+]1c(/C=C/c2ccc(N(CCCl)CCCl)cc2)ccc2cc(Br)ccc21
RESULT: 4.19 µM

QUERY: Please give the measured TGI for this compound: COC(=O)C1(C)CCc2c(ccc3ccccc23)C1=O (stereo not given)
RESULT: 83.8 µM

QUERY: Please give the measured TGI for this compound: CC1C2CC(CC2=O)C1(C)C (stereo not given)
RESULT: > 100 µM

QUERY: Please give the measured TGI for this compound: Cc1ccc(CCCC(=O)O)cc1C
RESULT: > 100 µM

QUERY: Please give the measured TGI for this compound: CC(C)(C)OC(=O)N1CCC[C@H]1CSC[C@@H]1CCCN1C(=O)OC(C)(C)C
RESULT: 38.2 µM

QUERY: Please give the measured TGI for this compound: COc1cc(-c2c(C(C)=O)c(-c3ccccc3)n(C3OC(COC(C)=O)C(OC(C)=O)C(OC(C)=O)C3OC(C)=O)c(=S)c2C#N)ccc1O (stereo not given)
RESULT: > 100 µM

QUERY: Please give the measured TGI for this compound: O=c1[nH]cnc2c1nnn2C1C=C(CO)C(O)C1O (stereo not given)
RESULT: > 100 µM

QUERY: Please give the measured TGI for this compound: [N-]=[N+]=NC1=C(N=[N+]=[N-])c2cccc3cccc(c23)C1=O
RESULT: > 100 µM

QUERY: Please give the measured TGI for this compound: COc1ccc(Nc2nc3c(N)cc(C(F)(F)F)cc3nc2-c2ccccc2)cc1
RESULT: > 100 µM

====

tested on: SK-MEL-5 melanoma; test: NCI tumour cell line growth inhibition, 48 h
Outcome label depends on TGI relative to 30 µM: at/above gives TRUE, below gives FALSE.

QUERY: Is the recorded value of TGI equal to or greater than 30 µM for this compound? CCOC(=O)c1c(C)n(-c2ccc(C)cc2)c2c1cc(O)c1[nH]c3c(c12)CCCC3
RESULT: FALSE

QUERY: Is the recorded value of TGI equal to or greater than 30 µM for this compound? CC(=O)Nc1ccccc1S(=O)(=O)c1c(-c2c(C)c(Cl)c(C)c(Cl)c2C)noc1C
RESULT: TRUE

QUERY: Is the recorded value of TGI equal to or greater than 30 µM for this compound? CSc1nc(NC2OC(CO)C(O)C(O)C2O)c(N)c(=O)n1C (stereo not given)
RESULT: TRUE

QUERY: Is the recorded value of TGI equal to or greater than 30 µM for this compound? C=C1C(=O)C23C(O)C1CCC2C12CO[C@]3(O)[C@@H](O)C1C(C)(C)CCC2O (stereo not given in full)
RESULT: TRUE

QUERY: Is the recorded value of TGI equal to or greater than 30 µM for this compound? CCOc1ccc(NC(=O)/C(=C/c2ccccc2)C(C)=O)cc1
RESULT: FALSE

QUERY: Is the recorded value of TGI equal to or greater than 30 µM for this compound? CNS(=O)(=O)NN(C)S(=O)(=O)c1ccc(C)cc1
RESULT: TRUE

QUERY: Is the recorded value of TGI equal to or greater than 30 µM for this compound? CCN1CCC(O)(c2ccccc2)C(C(=O)c2ccccc2)C1 (stereo not given)
RESULT: TRUE

QUERY: Is the recorded value of TGI equal to or greater than 30 µM for this compound? NC(N)=NCCCS(=O)(=O)Nc1ccc(Nc2c3ccccc3nc3cc([N+](=O)[O-])ccc23)cc1
RESULT: TRUE

QUERY: Is the recorded value of TGI equal to or greater than 30 µM for this compound? c1ccc(CNc2nc(Nc3ccc(-c4nc5ccccc5[nH]4)cc3)c3cn[nH]c3n2)cc1
RESULT: FALSE

QUERY: Is the recorded value of TGI equal to or greater than 30 µM for this compound? CC(=O)OCC1OC(n2cnc3c(I)nc(I)nc32)C(OC(C)=O)C1OC(C)=O (stereo not given)
RESULT: FALSE

QUERY: Is the recorded value of TGI equal to or greater than 30 µM for this compound? COC(=O)[C@H]1[C@H](OC(=O)[C@@H](OC)c2ccccc2)ON2CC[C@@H](OC(=O)c3ccccc3)[C@H]12
RESULT: TRUE

QUERY: Is the recorded value of TGI equal to or greater than 30 µM for this compound? [N-]=[N+]=NC1=C(N=[N+]=[N-])c2cccc3cccc(c23)C1=O
RESULT: TRUE

QUERY: Is the recorded value of TGI equal to or greater than 30 µM for this compound? COC(=O)/C=C(\S/C(=C(/c1ccccc1)n1cc(C(=O)OC)c(C(=O)OC)n1)c1ccccc1)C(=O)OC
RESULT: TRUE

QUERY: Is the recorded value of TGI equal to or greater than 30 µM for this compound? CCCCCCCCCCCCCCCc1ccc(C(=O)C[n+]2ccccc2)cc1
RESULT: FALSE

QUERY: Is the recorded value of TGI equal to or greater than 30 µM for this compound? Cc1c(/C=N\NC(=S)N(C)CCN(C)C(=S)N/N=C\c2c(C)n(C)n(-c3ccccc3)c2=O)c(=O)n(-c2ccccc2)n1C
RESULT: TRUE

QUERY: Is the recorded value of TGI equal to or greater than 30 µM for this compound? C[C@@H](Oc1cc(-n2cnc3ccc(OCC4CCN(C)CC4)cc32)sc1C(N)=O)c1ccccc1C(F)(F)F
RESULT: FALSE

QUERY: Is the recorded value of TGI equal to or greater than 30 µM for this compound? Cc1nc(N=C(N)N)nc2ccc3ccccc3c12
RESULT: FALSE

QUERY: Is the recorded value of TGI equal to or greater than 30 µM for this compound? O=C1Nc2ccccc2/C1=C\c1c(Cl)[nH]c2ccccc12
RESULT: FALSE

QUERY: Is the recorded value of TGI equal to or greater than 30 µM for this compound? COC(=O)C1(Cc2ccccc2C)Cc2ccc(C)cc2C1=O (stereo not given)
RESULT: TRUE

====

test system: MCF7 breast; test: NCI tumour cell line growth inhibition, 48 h
property.name: TGI

QUERY: Please give the measured TGI for this compound: CCOC(=O)CC(=O)Nc1c(C(=O)OCC)sc2nc(SC)nc(Nc3ccc(OC)c(OC)c3)c12
RESULT: > 100 µM

QUERY: Please give the measured TGI for this compound: S=c1nc(/C=C/c2ccc(Cl)c(Cl)c2)[nH][nH]1
RESULT: > 100 µM

QUERY: Please give the measured TGI for this compound: C/C(O)=C/c1nc2sc(C)c(C)c2c(=O)s1
RESULT: > 100 µM

QUERY: Please give the measured TGI for this compound: Cn1cccc1C1CC(=O)N(CCC[Se]C#N)C1=O (stereo unspecified)
RESULT: 14.6 µM

QUERY: Please give the measured TGI for this compound: COc1cccc2c(=O)c3c(O)c4cc(N(C)C)ccc4c(OC(C)=O)c3oc12
RESULT: 61.7 µM

QUERY: Please give the measured TGI for this compound: Nc1nc(Cl)c(N)c(NCC2(CO)CC(O)C2)n1 (stereo unspecified)
RESULT: > 100 µM
